- assay_system: T1, GST-DDB1 (UniProt Q16531 1-1140)
- T1 construct: also called glutathione S-transferase (GST)-DDB1; not shown: GST, N-terminal, kept
- T1 sequence (Q16531 whole entry): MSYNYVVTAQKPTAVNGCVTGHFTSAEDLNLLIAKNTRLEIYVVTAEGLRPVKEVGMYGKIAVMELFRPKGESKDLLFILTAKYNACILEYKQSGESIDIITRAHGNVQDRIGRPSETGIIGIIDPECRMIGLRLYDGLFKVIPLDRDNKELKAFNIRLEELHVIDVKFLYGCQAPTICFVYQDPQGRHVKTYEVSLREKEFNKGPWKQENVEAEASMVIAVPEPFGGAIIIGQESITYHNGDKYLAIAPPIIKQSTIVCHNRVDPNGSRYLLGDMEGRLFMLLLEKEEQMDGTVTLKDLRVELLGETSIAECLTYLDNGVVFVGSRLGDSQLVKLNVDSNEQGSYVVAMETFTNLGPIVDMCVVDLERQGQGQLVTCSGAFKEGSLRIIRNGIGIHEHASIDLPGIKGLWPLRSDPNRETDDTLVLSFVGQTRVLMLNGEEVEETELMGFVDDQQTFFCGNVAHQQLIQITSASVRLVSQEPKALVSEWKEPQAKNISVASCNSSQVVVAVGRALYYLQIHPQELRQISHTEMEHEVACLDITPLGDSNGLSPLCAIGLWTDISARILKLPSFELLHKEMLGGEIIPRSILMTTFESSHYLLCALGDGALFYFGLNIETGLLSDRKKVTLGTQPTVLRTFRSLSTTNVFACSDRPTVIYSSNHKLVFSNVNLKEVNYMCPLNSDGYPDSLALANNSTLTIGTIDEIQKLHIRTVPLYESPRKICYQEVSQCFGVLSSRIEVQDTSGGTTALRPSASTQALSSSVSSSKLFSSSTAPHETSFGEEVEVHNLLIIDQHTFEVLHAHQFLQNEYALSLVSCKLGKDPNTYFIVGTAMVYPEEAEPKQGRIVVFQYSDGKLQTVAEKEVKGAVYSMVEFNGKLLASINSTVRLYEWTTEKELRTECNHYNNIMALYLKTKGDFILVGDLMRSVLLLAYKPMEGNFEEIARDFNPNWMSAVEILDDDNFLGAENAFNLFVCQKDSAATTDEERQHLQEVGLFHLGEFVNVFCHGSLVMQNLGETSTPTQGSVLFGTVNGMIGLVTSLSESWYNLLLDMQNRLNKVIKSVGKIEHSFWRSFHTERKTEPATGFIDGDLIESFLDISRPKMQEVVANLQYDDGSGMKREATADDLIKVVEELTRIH
- procedure_details: AlphaScreen or HTRF; TR-FRET competition; 3 nM coexpressed His-HBx:GST-DDB1 complex preincubated with increasing untagged competitor 1 h at room temperature; Eu-cryptate anti-His and d2 anti-GST antibodies; 20 mM HEPES pH 7.2, 50 mM NaCl, 0.1 mg/ml BSA, 0.01% Brij-35, 0.5 mM TCEP
- test_settings: both partners purified
experimental_readout: IC50
Please state the number and follow it with the unit.

binder	IC50
SV5-V (natural protein, also called V protein of paramyxovirus SV5; source: E. coli Rosetta, purified (glutathione agarose, thrombin cleavage, MonoQ, Superdex 75); not shown: GST, N-terminal, cleaved) MDPTDLSFSPDEINKLIETGLNTVEYFTSQQVTGTSSLGKNTIPPGVTGLLTNAAEAKIQESTNHQKGSVGGGAKPKKPRPKIAIVPADDKTVPGKPIPNPLLGLDSTPSTQTVLDLSGKTLPSGSYKGVKLAKFGKENLMTRFIEEPRENPIATSSPIDFKRGRDTGGFHRREYSIGWVGDEVKVTEWCNPSCSPITAAARRFECTCHQCPVTCSECERDT	4 nM

Please turn your attention to the following entry.
Request: Quick one: IC50 of ILPKVLHKRTLGLSA [HBx H-box peptide (wild type)] ?
Result: 1560 nM
